# target_of_assay: prostaglandin I2 (prostacyclin, PGI2) binding sites
# protocol_description: [3H]iloprost saturation binding (vacuum filtration, Scatchard analysis) on normal thyroid membrane fraction
# applied_conditions: normal thyroid tissue, 4 C, 40 min, mean +/- s.d.; read-out: equilibrium dissociation constant (Kd), low affinity binding sites
measurement_name: Kd (nM)
Numbers only, in nM.

Give a short answer stating reported Kd for CC#CCC(C)[C@H](O)/C=C/[C@@H]1[C@H]2C/C(=C/CCCC(=O)O)C[C@H]2C[C@H]1O (stereo partly shown) [[3H]iloprost, iloprost] .
132
